Test Summary: physchem
Particulars: buffer, pH 6.5
Observation Type: solubility

Entry CC[C@@H](c1ccncc1)N(C)C(=O)N[C@@H]1COCC1(F)F needs its solubility filled in; supply it. > 299 µg/mL

Using known records, supply solubility for C[C@@H](c1ccncc1)N(C)/C(=N\C#N)NC1COCC1(F)F (stereo partly drawn) > 309 µg/mL

Specify reported solubility for the molecule shown: CN(Cc1ccncc1)C(=O)NC1COCC1(F)F (stereo not drawn) > 271 µg/mL
